# Test system: RXF 393 renal
# assayInfo: NCI tumour cell line growth inhibition, 48 h
Reported TGI is given for each of the following compounds.
assayMetric: TGI

| compound | result |
| --- | --- |
| O=C(N/N=C/c1cc(Br)ccc1O)N/N=C/c1cc(Br)ccc1O | > 100 µM |
| CC(=O)C1Cn2c(nc3ccccc32)C[Se]1 (stereo unspecified) | 5.2 µM |
| CN(C)CCC1(C2=CCCC2)CC/C(=C\c2ccc(Cl)cc2)C1=O (stereo unspecified) | 10.9 µM |
| [N-]=[N+]=C1C(=O)NN=C1c1ccccc1 | > 100 µM |
| CCN1CCN(c2nc3ccccc3c3c2CCOc2ccccc2-3)CC1 | > 65.1 µM |
| N#Cc1cc(-c2cc3ccccc3o2)oc1N | 13.5 µM |
| Cc1ccc2c3c1O[C@H]1c4[nH]c5ccccc5c4C[C@@]4(O)[C@@H](C2)N(CC2CC2)CC[C@]314 | 20.8 µM |
| Nc1nc(-[n+]2ccc(-c3ccncc3)cc2)nc(Cl)c1Cl | 32.8 µM |
| O=C(NC(Cc1ccccc1)(Cc1ccc(O)cn1)C(=O)O)c1ccccc1 (stereo unspecified) | > 100 µM |
| CCN(CC)C1CC(O[C@H]2C[C@](O)(C(=O)CO)Cc3c(O)c4c(c(O)c32)C(=O)c2c(OC)cccc2C4=O)OC(C)C1O (stereo partly specified) | 0.123 µM |
| COc1ccc(/C=C/c2c(C(=O)/C=C/c3ccccc3)c(C)nc3ccccc23)cc1 | 3.04 µM |

###

# Tested on: U251 CNS
# assayInfo: NCI tumour cell line growth inhibition, 48 h

| compound | measurementTarget | TGI |
| --- | --- | --- |
| C[C@@H]1Nc2cc(NC(=O)OCCF)nc(N)c2N=C1c1ccccc1 | U251 CNS | 12.2 µM |
| CC1(C)/C(=C/N=O)N(O)C(C)(C)N1O | U251 CNS | > 100 µM |
| N#C/C(=C/NC(N)=S)C(N)=O | U251 CNS | > 100 µM |
| COc1cc(Br)cc2cc(-c3cn4c(n3)sc3ccccc34)c(=O)oc12 | U251 CNS | 72.1 µM |
| CC/C=C\C[C@H](O)C/C=C1/C(=O)C=C[C@@H]1C/C=C\CCCC(=O)OC | U251 CNS | 4.07 µM |
| CC1=C(/C=C/Cl)CC(Cl)C(C)(Cl)C1 (stereo not drawn) | U251 CNS | > 100 µM |
| O=C(/C=C/c1ccc2ccccc2c1)NCc1ccc(C(=O)NCCc2ccccc2)cc1 | U251 CNS | > 100 µM |
| CC1CCCCNC1=S (stereo not drawn) | U251 CNS | > 10 µM |
| COc1ccc(S(=O)(=O)c2ccccc2[N+](=O)[O-])cc1 | U251 CNS | > 100 µM |
| C=CCCCCC/C=C\[C@@H](O)C#CC#C/C=C/CO | U251 CNS | > 100 µM |
| CC(=O)[C@@H](C)C(=O)N1C(=O)OC[C@@]12[C@@H]1CC[C@@H](C1)C2(C)C | U251 CNS | > 100 µM |
| CN(C)CCC1(C2=CCCC2)CC/C(=C\c2ccc(Cl)cc2)C1=O (stereo not drawn) | U251 CNS | 21.8 µM |
| Cn1cc(C2(C)CC(C)(C)c3c2n(C)c2ccccc32)c2ccccc21 (stereo not drawn) | U251 CNS | > 100 µM |
| Oc1c(N2CCOCC2)cc(-c2cc(N3CCOCC3)c(O)c3ccccc23)c2ccccc12 | U251 CNS | 3.34 µM |
| CC(=O)O[C@H]1CCC2[C@@H]3CC[C@]4(C)CC(=O)C=C[C@]4(C)C3CC[C@@]21C (stereo partly drawn) | U251 CNS | 33.1 µM |
| COC(=O)C(CC(=O)Nc1ccc(C)cc1)C(=O)C(=O)Nc1c(C(C)C)cccc1C(C)C (stereo not drawn) | U251 CNS | > 100 µM |
| CN=C(SC)N(C)c1nc(=[N+](C)C)ss1 | U251 CNS | > 100 µM |
| N#CCCC(CCC#N)(CCC#N)NO | U251 CNS | > 100 µM |
| Cn1c(O)c(C(=O)NC2CCCCC2)c(=O)n(C)c1=S | U251 CNS | 26.7 µM |
| COC(=O)Nc1nc2ccc(S(=O)(=O)SC)cc2[nH]1 | U251 CNS | 29.9 µM |
| N#Cc1cc(-c2cc3ccccc3o2)oc1N | U251 CNS | 14.7 µM |
| O=C(CC(=O)n1nc(-c2ccccc2)c(N=Nc2ccc(Cl)cc2)c1-c1ccccc1)Nc1ccc(Cl)cc1 | U251 CNS | > 100 µM |
| CCN1CCN(c2nc3ccccc3c3c2CCOc2ccccc2-3)CC1 | U251 CNS | > 79.2 µM |
